B1: OR4K15 (parent)
chain: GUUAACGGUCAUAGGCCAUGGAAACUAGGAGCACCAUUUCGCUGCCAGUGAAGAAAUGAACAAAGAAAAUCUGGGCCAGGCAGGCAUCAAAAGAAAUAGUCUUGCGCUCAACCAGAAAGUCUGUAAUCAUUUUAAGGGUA

Variants of: B1
Assay: self-cleavage, relative activity (ratio to wild type); higher = more cleavage; in vitro, sequencing; the parent is a self-cleaving ribozyme
recorded-metric: self-cleavage

changes	self-cleavage
G106A U108C	0
U9A	1.01
A18G A52G	1.67
G7U U131C	1.14

Give its self-cleavage value. Item: A69G A95U
1.56

Next variant up: A23U A54U
1.61

Similarly, C76U U87C ?
0.17

Now give it for U12A A60G too.
1.36

Likewise for U2C G106A ?
0.03

Entry U108A G123U please
0.01

Now consider A27C A69G and answer again.
1.34

What do you have for A47G A114G ?
0.24

For U57G A78U then?
0.22

Also check C40U A67G
0.82

Also check A59G U124C
0.78

Moving on to the next variant: A5G A62G
0.59

Also A13G G41C ?
1.02

Now give it for A66U A89C too.
0.99

Proceed to A22G A94C
1.21

Now this one: U132C A134G
1.05

Same read-out for A91U A94U ?
1.87

Request: G41A A52G
1.07
